// provenance: paper PMC8199500

pIC50 listing for selected compounds.
- System: metastatic colorectal adenocarcinoma (SW620) cells
- ASSAY NOTES: MTT proliferation assay, SW620 cells
- Assay type: cell-based, human
- ASSAY CONDITIONS: Homo sapiens, SW-620, 72 h incubation
pIC50: −log10 of the molar value.

1) C#CCOc1ccc(OCc2cn(CCn3cnc4c(N)ncnc43)nn2)cc1 [11e] :: < 4.00
2) c1nc(N2CCCCC2)c2ncn(CCn3cc(COc4ccc(OCc5cn(CCn6cnc7c(N8CCCCC8)ncnc76)nn5)cc4)nn3)c2n1 :: 4.36
3) Clc1ncnc2c1ccn2CCn1cc(COc2ccc(-c3ccc(OCc4cn(CCn5ccc6c(Cl)ncnc65)nn4)cc3)cc2)nn1 :: < 4.00
4) c1nc(N2CCCC2)c2ccn(CCn3cc(CCCc4cn(CCn5ccc6c(N7CCCC7)ncnc65)nn4)nn3)c2n1 :: < 4.00
5) Nc1ncnc2c1ncn2CCn1cc(COc2ccc(OCc3cn(CCn4cnc5c(N)ncnc54)nn3)cc2)nn1 [11a] :: < 4.00

Sure, the documented pIC50 for C#CCCCc1cn(CCn2ccc3c(Cl)ncnc32)nn1 is 4.09

The compound listed as C#CCOCc1cn(CCn2cnc3c(N)ncnc32)nn1 [11h] has a reported pIC50 of < 4.00

Entry c1nc(N2CCCCC2)c2ncn(CCn3cc(COc4ccc(-c5ccc(OCc6cn(CCn7cnc8c(N9CCCCC9)ncnc87)nn6)cc5)cc4)nn3)c2n1 — recorded pIC50 = 5.28

compound Clc1ncnc2c1ccn2CCn1cc(CCCc2cn(CCn3ccc4c(Cl)ncnc43)nn2)nn1 , pIC50 observed: < 4.00

Looking up C#CCOc1ccc(-c2ccc(OCc3cn(CCn4ccc5c(Cl)ncnc54)nn3)cc2)cc1 , I see its pIC50 listed as 5.10

Entry c1nc(N2CCCCC2)c2ccn(CCn3cc(CCCc4cn(CCn5ccc6c(N7CCCCC7)ncnc65)nn4)nn3)c2n1 ; pIC50 = 4.19

Short answer for c1nc(N2CCCCC2)c2ccn(CCn3cc(COc4ccc(OCc5cn(CCn6ccc7c(N8CCCCC8)ncnc76)nn5)cc4)nn3)c2n1 : pIC50 was < 4.00

* * *

Measured melting point of individual entries

Below are worked cases with known answers.
1. C#CCOc1ccc(-c2ccc(OCc3cn(CCn4cnc5c(N6CCCCC6)ncnc54)nn3)cc2)cc1 :: 221 to 225 °C
2. c1nc(N2CCCCC2)c2ccn(CCn3cc(CCCc4cn(CCn5ccc6c(N7CCCCC7)ncnc65)nn4)nn3)c2n1 :: 145 to 147 °C
3. c1nc(N2CCCCC2)c2ccn(CCn3cc(COc4ccc(-c5ccc(OCc6cn(CCn7ccc8c(N9CCCCC9)ncnc87)nn6)cc5)cc4)nn3)c2n1 :: 137 to 139 °C
4. C#CCOc1ccc(OCc2cn(CCn3cnc4c(N)ncnc43)nn2)cc1 [11e] :: > 280 °C
5. C#CCCCc1cn(CCn2cnc3c(N)ncnc32)nn1 [11g] :: 226 to 228 °C
6. c1nc(N2CCCC2)c2ccn(CCn3cc(COc4ccc(-c5ccc(OCc6cn(CCn7ccc8c(N9CCCC9)ncnc87)nn6)cc5)cc4)nn3)c2n1 :: 187 to 189 °C

Okay, now this molecule:
The molecule identified as C#CCOc1ccc(OCc2cn(CCn3cnc4c(N5CCCCC5)ncnc43)nn2)cc1 registered its melting point at 233 to 236 °C

* * *

- System: normal human foreskin fibroblasts (HFF-1)
- ASSAY NOTES: MTT proliferation assay, normal fibroblasts HFF-1
- Format: cell-based
- ASSAY CONDITIONS: 72 h incubation
- Description: Human carcinoma cell lines A549 (lung carcinoma), HeLa (cervical carcinoma), SW620 (colorectal adenocarcinoma, metastatic) and CFPAC-1 (pancreatic cancer, derived from metastatic: liver), and normal human foreskin (HFF-1) fibroblasts were obtained from the American Type Culture Collection (ATCC, Manassas, VA, USA). Cells were cultured in humidified atmosphere at 37 °C with 5% CO2. […]
List of pIC50 values.
Quick note: pIC50 means taking -log10 of the concentration in moles per liter.

Sample records with pIC50:
1) c1nc(N2CCCCC2)c2ncn(CCn3cc(COc4ccc(OCc5cn(CCn6cnc7c(N8CCCCC8)ncnc76)nn5)cc4)nn3)c2n1 :: 6.12
2) Clc1ncnc2c1ccn2CCn1cc(COc2ccc(-c3ccc(OCc4cn(CCn5ccc6c(Cl)ncnc65)nn4)cc3)cc2)nn1 :: 6.89
3) c1nc(N2CCCC2)c2ccn(CCn3cc(COc4ccc(OCc5cn(CCn6ccc7c(N8CCCC8)ncnc76)nn5)cc4)nn3)c2n1 :: 6.09
4) c1nc(N2CCCCC2)c2ncn(CCn3cc(COc4ccc(-c5ccc(OCc6cn(CCn7cnc8c(N9CCCCC9)ncnc87)nn6)cc5)cc4)nn3)c2n1 :: 6.10

Measured pIC50, C#CCOc1ccc(-c2ccc(OCc3cn(CCn4ccc5c(Cl)ncnc54)nn3)cc2)cc1 : 6.21

Record summary for C#CCOc1ccc(-c2ccc(OCc3cn(CCn4cnc5c(N6CCCCC6)ncnc54)nn3)cc2)cc1 : reported pIC50 = 5.37

* * *

- Test system: human tumor cell lines (A549, HeLa, CFPAC-1, SW620)
- ASSAY NOTES: MTT proliferation assay, all evaluated tumor cell lines
- Assay type: cell-based
- ASSAY CONDITIONS: Homo sapiens, read-out: antiproliferative activity (IC50) over the evaluated tumor cell lines
pIC50: −log10 of the molar value.
READOUT KIND: pIC50

// c1nc(N2CCCCC2)c2ccn(CCn3cc(CCCc4cn(CCn5ccc6c(N7CCCCC7)ncnc65)nn4)nn3)c2n1 : pIC50 value = 4.19 to 4.55

* * *

- Tested on: lung adenocarcinoma (A549) cells
- ASSAY NOTES: MTT proliferation assay, A549 cells
- Type: cell-based, human
- ASSAY CONDITIONS: Homo sapiens, A549, 72 h incubation
Examples of compounds with documented IC50 follow.

1) C#CCOc1ccc(OCc2cn(CCn3cnc4c(N)ncnc43)nn2)cc1 [11e] :: > 100 µM
2) C#CCCCc1cn(CCn2ccc3c(Cl)ncnc32)nn1 :: > 100 µM

Attention now shifts to the item below.
Form field IC50, entry Clc1ncnc2c1ccn2CCn1cc(COc2ccc(OCc3cn(CCn4ccc5c(Cl)ncnc54)nn3)cc2)nn1 : > 100 µM

* * *

- Test system: metastatic colorectal adenocarcinoma (SW620) cells
- ASSAY NOTES: MTT proliferation assay, SW620 cells
- Format: cell-based, human
- ASSAY CONDITIONS: Homo sapiens, SW-620, 72 h incubation
READOUT KIND: IC50

1) c1nc(N2CCCC2)c2ccn(CCn3cc(COc4ccc(-c5ccc(OCc6cn(CCn7ccc8c(N9CCCC9)ncnc87)nn6)cc5)cc4)nn3)c2n1 [7b] :: > 100 µM
2) c1nc(N2CCCCC2)c2ncn(CCn3cc(CCCc4cn(CCn5cnc6c(N7CCCCC7)ncnc65)nn4)nn3)c2n1 [9c] :: > 100 µM
3) Clc1ncnc2c1ccn2CCn1cc(COc2ccc(OCc3cn(CCn4ccc5c(Cl)ncnc54)nn3)cc2)nn1 [5a] :: > 100 µM

The molecule identified as c1nc(N2CCCC2)c2ccn(CCn3cc(COc4ccc(OCc5cn(CCn6ccc7c(N8CCCC8)ncnc76)nn5)cc4)nn3)c2n1 [7a] registered its IC50 at 78 µM

In plain terms, C#CCOc1ccc(OCc2cn(CCn3cnc4c(N5CCCCC5)ncnc43)nn2)cc1 [9e] has a documented IC50 of 35.7 µM

The molecule identified as C#CCCCc1cn(CCn2cnc3c(N)ncnc32)nn1 [11g] registered its IC50 at > 100 µM
